Where do these numbers come from? They come from patent US4973545A.

// reported Dark/Wet Fade per item
- experiment_summary: Dye stability testing: dark keeping, dark/wet fade
- Type: physicochemical
- experimental_setup: dye image from coupler, dark oven, 60° C., 70% relative humidity; fractional density change at absorption maximum
Form: value (number only, do not type unit).

CCCCCCCCCCCCC(Oc1ccc(O)c(C(C)(C)C)c1)C(=O)Nc1ccc(Cl)c(NC2=NN(c3c(Cl)cc(Cl)cc3Cl)C(=O)C2)c1 (stereo not shown) [Coupler C-3]	-0.08

Here's the next entry for you.
[in] Please give the measured Dark/Wet Fade for this compound: CCCCCCCCCCCCC(Oc1ccc(O[Si](C)(C)C(C)(C)C)c(C(C)(C)C)c1)C(=O)Nc1ccc(Cl)c(NC2=NN(c3c(Cl)cc(Cl)cc3Cl)C(=O)C2)c1 (stereo not shown) [Coupler 3]
[out] -0.04
